target: Intestinal-type alkaline phosphatase (Homo sapiens, UniProt P09923); assay: inhibition of human intestinal alkaline phosphatase – biochemical, dose response (AID 488876)
Sequence (P09923 whole entry): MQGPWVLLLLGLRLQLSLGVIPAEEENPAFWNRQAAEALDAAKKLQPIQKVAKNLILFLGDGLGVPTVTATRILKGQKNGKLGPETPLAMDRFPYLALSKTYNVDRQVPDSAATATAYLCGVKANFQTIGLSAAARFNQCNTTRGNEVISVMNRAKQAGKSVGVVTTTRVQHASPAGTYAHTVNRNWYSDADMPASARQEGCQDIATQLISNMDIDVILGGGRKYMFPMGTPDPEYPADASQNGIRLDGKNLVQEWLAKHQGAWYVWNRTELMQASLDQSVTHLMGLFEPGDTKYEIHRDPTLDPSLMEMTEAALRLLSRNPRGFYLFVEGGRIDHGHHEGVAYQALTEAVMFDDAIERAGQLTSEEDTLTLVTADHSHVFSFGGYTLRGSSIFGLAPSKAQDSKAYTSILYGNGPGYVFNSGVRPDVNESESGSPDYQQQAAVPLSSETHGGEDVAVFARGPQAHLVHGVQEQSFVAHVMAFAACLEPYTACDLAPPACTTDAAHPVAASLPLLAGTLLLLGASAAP
measured quantity: IC50 (µM)
Entry rule: numbers only, all in µM.

Req: Any idea what its IC50 is? The molecule is C#CCOCCOCCOCCNc1nc(N2CCN(C(=O)CCCCCCCCCCNC(=O)[C@@H](CCSC)n3cc(CCO)nn3)CC2)nc(N2CCN(C(=O)CCCCCCCCCCNC(=O)[C@H]([C@@H](C)CC)n3cc(CCCCCN)nn3)CC2)n1
Resp: 14.3

Req: Next record, please: COc1cc(C=Nn2c(O)csc2=S)ccc1O
Resp: 21.3
